# Subject Of Test: renin (Homo sapiens, UniProt P00797)
# Construct: endogenous renin and angiotensinogen in plasma
# Sequence (P00797 67-406): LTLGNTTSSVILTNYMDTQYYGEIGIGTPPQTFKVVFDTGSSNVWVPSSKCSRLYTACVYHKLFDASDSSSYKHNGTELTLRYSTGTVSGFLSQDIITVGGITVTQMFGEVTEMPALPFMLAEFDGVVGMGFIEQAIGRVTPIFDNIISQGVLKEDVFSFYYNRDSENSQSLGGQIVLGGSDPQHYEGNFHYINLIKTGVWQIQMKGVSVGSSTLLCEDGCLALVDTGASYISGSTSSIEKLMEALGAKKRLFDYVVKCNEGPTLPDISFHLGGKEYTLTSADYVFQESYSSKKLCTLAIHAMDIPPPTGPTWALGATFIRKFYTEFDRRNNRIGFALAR
# Experimental Details: Inhibition of human plasma renin activity (angiotensin I formation, RIA)
# Conditions Used: endogenous renin and angiotensinogen, pH 6.0, 37° C, 90 minutes, RIA of Ang I

>  <Structure Smiles String>
CC(C)CC[C@H](O)[C@H](CC1CCCCC1)NC(=O)[C@H](Cc1c[nH]cn1)N(C)C(=O)[C@H](Cc1ccccc1)OC(=O)N(C)CCC(=O)N(C)CC(C)C

>  <Subject Of Test>
renin (Homo sapiens, UniProt P00797)

>  <Output Unit>
nM

>  <IC50>
46

$$$$
>  <Structure Smiles String>
CC(C)CC[C@H](O)[C@H](CC1CCCCC1)NC(=O)[C@H](Cc1c[nH]cn1)N(C)C(=O)[C@H](Cc1ccccc1)OC(=O)N(C)CCCN(C)C(=O)N1CCOCC1

>  <Subject Of Test>
renin (Homo sapiens, UniProt P00797)

>  <Output Unit>
nM

>  <IC50>
13

$$$$
>  <Structure Smiles String>
CC(C)CC[C@H](O)[C@H](CC1CCCCC1)NC(=O)[C@H](Cc1c[nH]cn1)N(C)C(=O)[C@H](Cc1ccccc1)OC(=O)N(C)CC(=O)N(C)C

>  <Subject Of Test>
renin (Homo sapiens, UniProt P00797)

>  <Output Unit>
nM

>  <IC50>
40

$$$$
>  <Structure Smiles String>
CC(C)CC[C@H](O)[C@H](CC1CCCCC1)NC(=O)[C@H](Cc1c[nH]cn1)N(C)C(=O)[C@H](Cc1ccccc1)OC(=O)N(C)CC(=O)NCc1ccncc1

>  <Subject Of Test>
renin (Homo sapiens, UniProt P00797)

>  <Output Unit>
nM

>  <IC50>
46

$$$$
>  <Structure Smiles String>
CC(C)CC[C@H](O)[C@H](CC1CCCCC1)NC(=O)[C@H](Cc1c[nH]cn1)N(C)C(=O)[C@H](Cc1ccccc1)OC(=O)N(C)CCC(=O)N(C)c1ccccc1

>  <Subject Of Test>
renin (Homo sapiens, UniProt P00797)

>  <Output Unit>
nM

>  <IC50>
24

$$$$

* * *

# Subject Of Test: renin (Homo sapiens)
# Construct: endogenous renin and angiotensinogen in plasma
# Experimental Details: Inhibition of human plasma renin activity (angiotensin I formation, RIA)
# Conditions Used: endogenous renin and angiotensinogen, pH 6.0, 37° C, 90 minutes, RIA of Ang I
Mark each entry 1 if its IC50 sits below 30 nM, and -1 for all others.

>  <Molecule>
CC(C)CC[C@H](O)[C@H](CC1CCCCC1)NC(=O)[C@H](Cc1c[nH]cn1)N(C)C(=O)[C@H](Cc1ccccc1)OC(=O)N(C)CCCC(=O)N1CCOCC1 [(32)]

>  <Assigned Category>
1

$$$$
>  <Molecule>
CC(C)CC[C@H](O)[C@H](CC1CCCCC1)NC(=O)[C@H](Cc1c[nH]cn1)N(C)C(=O)[C@H](Cc1ccccc1)OC(=O)N1CCOCC1 [(2)]

>  <Assigned Category>
-1

$$$$
>  <Molecule>
COC(=O)CN(C)C(=O)O[C@@H](Cc1ccccc1)C(=O)N(C)[C@@H](Cc1c[nH]cn1)C(=O)N[C@@H](CC1CCCCC1)[C@@H](O)CCC(C)C [(3)]

>  <Assigned Category>
-1

$$$$
>  <Molecule>
CC(C)CC[C@H](O)[C@H](CC1CCCCC1)NC(=O)[C@H](Cc1c[nH]cn1)N(C)C(=O)[C@H](Cc1ccccc1)OC(=O)N1CCCN1C(=O)NC(C)C [(22)]

>  <Assigned Category>
-1

$$$$
>  <Molecule>
CC(C)CC[C@H](O)[C@H](CC1CCCCC1)NC(=O)[C@H](Cc1c[nH]cn1)N(C)C(=O)[C@H](Cc1ccccc1)OC(=O)N1CCNC(=O)C1 [(12)]

>  <Assigned Category>
1

$$$$

This collection of values is drawn from patent US4921855A.
